# measured-target: human SOS1 (hSOS1) with human K-RasG12C (hK-RasG12C) (Homo sapiens, UniProt Q07889)
# Construct: His10-hSOS1
# Sequence (Q07889 with tags, fused parts or gaps): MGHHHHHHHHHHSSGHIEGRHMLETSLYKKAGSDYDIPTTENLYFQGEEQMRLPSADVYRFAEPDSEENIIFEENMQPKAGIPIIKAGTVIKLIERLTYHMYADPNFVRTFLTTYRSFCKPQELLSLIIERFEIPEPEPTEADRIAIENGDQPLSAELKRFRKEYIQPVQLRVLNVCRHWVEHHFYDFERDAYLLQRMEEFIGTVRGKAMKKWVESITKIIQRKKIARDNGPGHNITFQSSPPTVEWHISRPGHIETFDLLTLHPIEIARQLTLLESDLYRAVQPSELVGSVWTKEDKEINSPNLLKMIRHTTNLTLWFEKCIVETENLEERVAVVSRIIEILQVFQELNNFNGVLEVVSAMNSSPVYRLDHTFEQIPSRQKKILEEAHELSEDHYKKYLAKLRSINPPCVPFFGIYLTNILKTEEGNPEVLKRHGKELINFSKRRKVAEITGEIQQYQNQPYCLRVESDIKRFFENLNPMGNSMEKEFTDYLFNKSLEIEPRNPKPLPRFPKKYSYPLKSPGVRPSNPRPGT
# method-summary: hK-RasG12C interaction assay with hSOS1 (Biochemical Assay 1, HTRF)
# setup-conditions: mean, read-out: K-RasG12C- SOS interaction assay IC50 - [mol/l] (mean)
endpoint-label: IC50 (nM)

{"columns": ["smiles-representation", "endpoint-label", "unit-tag", "bound-sign", "quantitative-readout"],
 "data": [
  ["CC(=O)N[C@@H]1CCN(c2cc3c(N[C@H](C)c4cccc(C(F)F)c4F)nc(C)nc3cn2)C1", "IC50", "nM", "=", 77.3],
  ["CC(=O)N[C@@H]1CCN(c2cc3c(N[C@H](C)c4cccc(C(F)F)c4F)nc(C)nc3c(C)n2)C1", "IC50", "nM", "=", 56.8],
  ["CCOc1cc2c(N[C@H](C)c3cccc(C(F)F)c3F)nc(C)nc2cn1", "IC50", "nM", "=", 134],
  ["CC(=O)N[C@H]1CCN(c2cc3c(N[C@H](C)c4cccc(C(F)F)c4F)nc(C)nc3cn2)C1", "IC50", "nM", "=", 79.8],
  ["Cc1nc(N[C@H](C)c2cccc(C(F)F)c2F)c2cc(N3CCCC3)ncc2n1", "IC50", "nM", "=", 185],
  ["Cc1nc(N[C@H](C)c2cccc(C(F)F)c2F)c2cc(F)nc(C)c2n1", "IC50", "nM", ">", 20000],
  ["Cc1nc(N[C@H](C)c2cccc(C(F)F)c2F)c2cc(F)ncc2n1", "IC50", "nM", ">", 20000]
]}
